The measurements presented in this section are drawn from ChEMBL document CHEMBL3046642.

System: Rattus norvegicus
Test: Inhibition of 5alpha-reductase in Rattus norvegicus Sprague-Dawley (rat) assessed as increase in serum testosterone at 40 mg/kg, ip after 6 hr by ELISA
Format: functional, organism-based
Parameters: dose 40 mg/kg
The source made the active and inactive calls. No cut-off for these calls is given here.
Just give me one of these, please: active, inactive

Ask: Would you mind telling me which call this test gave C[C@]12CC[C@H](OC(=O)c3ccccc3)CC1=CC[C@@H]1[C@@H]2CC[C@]2(C)/C(=N/O)CC[C@@H]12 ?
Result: active

Ask: So what was the verdict on C[C@]12CC[C@H](OC(=O)c3ccc(O)cc3)CC1=CC[C@@H]1[C@@H]2CC[C@]2(C)/C(=N/O)CC[C@@H]12 in this test?
Result: inactive

Ask: Status in this test for C[C@]12CC[C@H](OC(=O)Cc3ccccc3)CC1=CC[C@@H]1[C@@H]2CC[C@]2(C)/C(=N/O)CC[C@@H]12 ?
Result: active

###

Experiment: Cytotoxicity against Mus musculus Balb/c (mouse) macrophages after 24 hr by MTT assay
Assay type: cell-based, Macrophage
Details: read-out: LC50
// NB: equality with 30 µM counts as Not met; only CC50 at 24 h strictly below is Met

Solved entries:
CC(C)(C)NC(=O)[C@H]1CC[C@H]2[C@@H]3CC[C@H]4NC(=O)C=C[C@]4(C)[C@H]3CC[C@]12C [FINASTERIDE] = Met
Cc1ccc(C(=O)O[C@H]2CC[C@@]3(C)C(=CC[C@@H]4[C@@H]3CC[C@]3(C)/C(=N/O)CC[C@@H]43)C2)cc1 = Met

Ask: Is 30 µM strictly greater than the compound's reported CC50 at 24 h? compound: C[C@]12CC[C@H](OC(=O)c3ccc(O)cc3)CC1=CC[C@@H]1[C@@H]2CC[C@]2(C)/C(=N/O)CC[C@@H]12
Result: Met

Ask: Lab note: confirm whether the reported CC50 at 24 h for this compound is below 30 µM, equality not counting. compound: COc1ccc(C(=O)O[C@H]2CC[C@@]3(C)C(=CC[C@@H]4[C@@H]3CC[C@]3(C)/C(=N/O)CC[C@@H]43)C2)cc1
Result: Met

Ask: Answer whether the compound C[C@]12CC[C@H](OC(=O)c3ccc([N+](=O)[O-])cc3)CC1=CC[C@@H]1[C@@H]2CC[C@]2(C)/C(=N/O)CC[C@@H]12 has CC50 at 24 h strictly less than 30 µM
Result: Met

Ask: Find out if reported CC50 at 24 h for C[C@]12CC[C@H](OC(=O)c3ccccc3)CC1=CC[C@@H]1[C@@H]2CC[C@]2(C)/C(=N/O)CC[C@@H]12 is less than 30 µM
Result: Not met

###

Assay: Cytotoxicity against Mus musculus Balb/c (mouse) macrophages after 24 hr by MTT assay
Format: cell-based, Macrophage
Details: read-out: LC50
recorded.metric: CC50 at 24 h (µM)
Give just the number in µM; leave the unit off.

Ask: Item under review: C[C@]12CC[C@H](OC(=O)Cc3ccccc3)CC1=CC[C@@H]1[C@@H]2CC[C@]2(C)/C(=N/O)CC[C@@H]12 . Reported CC50 at 24 h?
Result: 11.8

###

Tested on: Rattus norvegicus
Assay: Inhibition of 5alpha-reductase in Rattus norvegicus Sprague-Dawley (rat) assessed as increase in serum testosterone at 40 mg/kg, ip after 6 hr by ELISA
Assay type: functional, organism-based
Design: dose 40 mg/kg
Activity calls are given as the source filed them. The calls are words filed in the database; no cut-off is given here.
The reply should name one outcome from true (active), false (inactive)

Ask: Lab log entry: C[C@]12CC[C@H](OC(=O)c3ccc([N+](=O)[O-])cc3)CC1=CC[C@@H]1[C@@H]2CC[C@]2(C)/C(=N/O)CC[C@@H]12 — outcome as called in the assay?
Result: true

Ask: I would be grateful if you could indicate the recorded call for C[C@]12CC[C@H](OC(=O)CCl)CC1=CC[C@@H]1[C@@H]2CC[C@]2(C)/C(=N/O)CC[C@@H]12 .
Result: true

Ask: Assay result, entry C[C@]12CC[C@H](OC(=O)COc3ccccc3)CC1=CC[C@@H]1[C@@H]2CC[C@]2(C)/C(=N/O)CC[C@@H]12 — outcome?
Result: true

Ask: Recorded test outcome, item Cc1ccc(C(=O)O[C@H]2CC[C@@]3(C)C(=CC[C@@H]4[C@@H]3CC[C@]3(C)/C(=N/O)CC[C@@H]43)C2)cc1
Result: true

Ask: Record request — test call for COc1ccc(C(=O)O[C@H]2CC[C@@]3(C)C(=CC[C@@H]4[C@@H]3CC[C@]3(C)/C(=N/O)CC[C@@H]43)C2)cc1
Result: false
